Biological target: human orexin type 2 receptor (hOX2R) (Homo sapiens (Human), UniProt O43614)
Sequence (O43614 whole entry): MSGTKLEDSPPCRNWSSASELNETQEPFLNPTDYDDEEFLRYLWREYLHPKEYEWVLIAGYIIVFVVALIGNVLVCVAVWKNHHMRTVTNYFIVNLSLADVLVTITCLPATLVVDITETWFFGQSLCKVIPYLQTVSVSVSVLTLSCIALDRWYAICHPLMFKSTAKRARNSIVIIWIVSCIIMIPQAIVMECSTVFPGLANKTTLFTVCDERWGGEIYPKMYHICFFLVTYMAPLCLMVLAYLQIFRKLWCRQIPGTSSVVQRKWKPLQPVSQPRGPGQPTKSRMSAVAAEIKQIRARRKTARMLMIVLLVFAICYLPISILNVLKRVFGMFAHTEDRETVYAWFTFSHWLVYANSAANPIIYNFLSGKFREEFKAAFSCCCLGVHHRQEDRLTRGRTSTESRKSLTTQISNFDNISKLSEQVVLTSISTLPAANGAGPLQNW
Test: Measurement of orexin type 2 receptor agonist activity (Experimental Example 2-1, FLIPR TETRA, intracellular Ca2+)
Format: cell-based
Conditions: CHO dhfr- cells expressing hOX2R, FLIPR TETRA, Fluo-4AM; read-out: Emax (%)
reportedMetric: Emax (%)

INSERT INTO results (compound, outputunit, quantitativereadout) VALUES
  ('CC(=O)N1CCC[C@H](NS(C)(=O)=O)[C@@H]1CO[C@H]1CC[C@@H](c2ccn(C)n2)CC1 (relative stereo) [Example 158]', '%', 83),
  ('COC(=O)N1CCC[C@H](NS(C)(=O)=O)[C@@H]1CO[C@H]1CC[C@@H](c2c(F)cccc2F)CC1 [Example 215]', '%', 105),
  ('CC1(OC(=O)N2CCC[C@H](NS(C)(=O)=O)[C@@H]2COC2CCN(c3ncccn3)CC2)CC1 (relative stereo) [Example 284]', '%', 95);

----------
Target: human orexin type 2 receptor (hOX2R) (Homo sapiens (Human), UniProt O43614)
Assay: Measurement of orexin type 2 receptor agonist activity (Experimental Example 2-1, FLIPR TETRA, intracellular Ca2+)
Format: cell-based
Details: CHO dhfr- cells expressing hOX2R, FLIPR TETRA, Fluo-4AM; read-out: Emax (%)
reportedMetric: Emax (%)

INSERT INTO assay_data (compound, reportedmetric, quantitativereadout) VALUES
  ('CCNC(=O)N1CCC[C@H](NS(C)(=O)=O)[C@@H]1COC1CCN(c2ccccc2)CC1 (relative stereo)', 'Emax', 120),
  ('COC(=O)N1CCC[C@H](NS(C)(=O)=O)[C@@H]1CO[C@H]1CC[C@@H](c2ccn(C)n2)CC1 (relative stereo)', 'Emax', 94),
  ('CCNC(=O)N1CCC[C@H](NS(C)(=O)=O)[C@@H]1CO[C@H]1CC[C@@H](c2ccccc2OC(F)(F)F)CC1 (relative stereo)', 'Emax', 93),
  ('CS(=O)(=O)N[C@H]1CCCN(C(=O)C2CC2)[C@H]1CO[C@H]1CC[C@@H](c2c(F)cccc2F)CC1', 'Emax', 102),
  ('CS(=O)(=O)N[C@H]1CCCN(C(=O)NCC#N)[C@H]1CO[C@H]1CC[C@@H](c2ccccc2)CC1 (relative stereo)', 'Emax', 100),
  ('CC(=O)N(C)CC(=O)N1CCC[C@H](NS(C)(=O)=O)[C@@H]1CO[C@H]1CC[C@@H](c2ccccc2)CC1 (relative stereo)', 'Emax', 95);

----------
Target: human orexin type 2 receptor (hOX2R) (Homo sapiens (Human))
Test: Measurement of orexin type 2 receptor agonist activity (Experimental Example 2-1, FLIPR TETRA, intracellular Ca2+)
Assay type: cell-based
Conditions: CHO dhfr- cells expressing hOX2R, FLIPR TETRA, Fluo-4AM; read-out: Emax (%)
reportedMetric: Emax (%)

INSERT INTO assay_data (compound, outputunit, quantitativereadout) VALUES
  ('COC(=O)N1CCC[C@H](NS(C)(=O)=O)[C@@H]1CO[C@H]1CC[C@@H](c2cc(F)cc(F)c2F)CC1 [Example 244]', '%', 97),
  ('CCc1ccccc1[C@H]1CC[C@@H](OC[C@H]2[C@@H](NS(C)(=O)=O)CCCN2C(C)=O)CC1 [Example 312]', '%', 98),
  ('CC(C)OC(=O)N1CCC[C@H](NS(C)(=O)=O)[C@@H]1CO[C@H]1CC[C@@H](c2cccc(F)c2)CC1 [Example 264]', '%', 91),
  ('Cc1ccccc1[C@H]1CC[C@@H](OC[C@@H]2NCCC[C@@H]2NS(C)(=O)=O)CC1 [Example 318]', '%', 99);
